Molecular target: T1, Her018P, Her2 ECD with a deletion in the CR2 (Domain IV) region expressed with a mIgG2a Fc tail (human; murine, UniProt P04626 23-599)
T1 construct: Shares the name HER018 with the trastuzumab SMIP; also called 1.8 (Dimer); dimeric HER018; not shown: murine IgG2a Fc tail (C-terminal dimerising carrier) and any junction residues
Assay: ELISA, soluble scFv on Her018
measurementType: binding result

Would you please look over these solved cases?
binder	result
S1R3A1_CS_1B10 (scFv, V domains shown, scFv, soluble from bacterial periplasm in the screen; also called Her2_S1R3A1_CS_1B10) VH: EVQLVQSGAEVKKPGASVRVSCKGSGNTFTGHYIHWVRQAPGQGLEWLGWIDPNTGDIQYSENFKGSVTLTRDPSINSVFMDLIRLTSDDTAMYYCAREGAGLANYYYYGLDVWGRGTMVTVSS VL: QTVVLQEPSFSVSPGGTVTLTCGLNFGSVSTAYYPSWYQQTPGQAPRTLIYGTNIRSSGVPDRFSGSIVGNKAALTITGAQTEDESDYYCALYMGSGMLFGGGTKVTVL	binds
S1R3B1_BMV_1A10 (scFv, V domains shown, scFv, soluble from bacterial periplasm in the screen; also called Her2_S1R3B1_BMV_1A10) VH: QMQLVQSGGGVVQPGRSLRLSCAASGFTFSSYGMHWVRQAPGKGLEWVAVISYDGSIKYYADSVKGRFTISRDNSKNTLYLQMNSLRAEDTGVYYCSKDRYSSGWYSSDAFDIWGRGTMVTVSS VL: SSELTQDPAVSVALGQTVRITCQGDSLRSYYASWYQQKPGQAPVLVIYGKNNRPSGIPDRFSGSSSGNTASLTITGAQAEDEADYYCHSRDSSGNHVLFGGGTKLTVL	no binding
S1R3B2_BMV_1G2 (scFv, V domains shown, scFv, on phage in the screen; also called Her2_S1R3B2_BMV_1G2) VH: QVQLVQSGAEVKKPGSSVKVSCKASGYTFTSYGISWVRQAPGQGLEWMGWISAYNGNTNYAQKLQGRVTMTTDTSTSTAYMELRSLRSDDTAVYYCARVPGVSGSYPDYYYMDVWGKGTLVTVSS VL: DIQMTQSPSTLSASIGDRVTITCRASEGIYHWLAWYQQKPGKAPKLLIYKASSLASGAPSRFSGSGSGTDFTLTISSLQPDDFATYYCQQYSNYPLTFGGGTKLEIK	binds
S1R3B1_BMV_1A1 (scFv, V domains shown, scFv, soluble from bacterial periplasm in the screen; also called Her2_S1R3B1_BMV_1A1) VH: EVQLVQSGAEVKEPGASVKVSCKASGYDFSNYGFSWVRQAPGQGLEWMGWISSYNGYTNYAQRLQGRVTMTTDTSTSTAYMELRSLRSDDTAVYYCARDRGLGNWYFDLWGQGTLVTVSS VL: QSVLTQPASVSGSPGQSITISCTGTSSDVGGYNYVSWYQQHPGKAPKLMIYEGSKRPSGVSNRFSGSKSGNTASLTISGLQAEDEADYYCSSYTTRSTRVFGGGTKLTVL	no binding

Which measured binding result value corresponds to S1R3B1_BMV_1H5 (scFv, V domains shown, scFv, soluble from bacterial periplasm in the screen; also called Her2_S1R3B1_BMV_1H5) VH: QVQLQESGGGVVQPGGSLRLSCAASGFTFSGYGMHWVRQAPGKGLEWVASVRNDGSNTYYTDSVKDRFTISRDNTKNTLYLQMNSLRAEDTAVYYCAKSRRVMYGTSYYFDYWGRGTLVTVSS VL: SSELTQDPAVSVALGQTVRITCQGDSLRSYYASWYQQKPGQAPVLVIYGKNNRPSGIPDRFSGSSSGNTASLTITGAQAEDEADYYCNSRDSSGNHVVFGGGTKLTVL ? no binding
